Target: Adenosine receptor A1 (Homo sapiens, UniProt P30542)
Assay: Displacement of radioligand from human recombinant adenosine A1 receptor at 21 degC after 90 mins by cell-based microplate scintillation counting
Reported Ki values for the following compounds.
reported-property: Ki (nM)

[[record]]
smiles_str = "Cc1ccccc1Cn1nnc2c(-c3ccco3)nc(N)nc21"
observed_value = 183

[[record]]
smiles_str = "Nc1nc(-c2ccco2)c2nnn(Cc3ccc4[nH]ncc4c3)c2n1"
observed_value = 190

[[record]]
smiles_str = "Nc1nc(-c2ccco2)c2nnn(Cc3cccnc3)c2n1"
observed_value = 931

[[record]]
smiles_str = "Nc1nc(-c2ccco2)c2nnn(Cc3cnccn3)c2n1"
observed_value = 1170

[[record]]
smiles_str = "CNc1ccc(Cn2nnc3c(-c4ccco4)nc(N)nc32)cc1"
observed_value = 40

[[record]]
smiles_str = "Nc1nc(-c2ccco2)c2nnn(Cc3c(F)cccc3F)c2n1"
observed_value = 42

[[record]]
smiles_str = "Nc1nc(-c2ccco2)c2nnn(Cc3ccc([N+](=O)[O-])cc3)c2n1"
observed_value = 769

[[record]]
smiles_str = "Nc1nc(-c2ncco2)c2nnn(Cc3ccccc3F)c2n1"
observed_value = 599

[[record]]
smiles_str = "Nc1nc(-c2ccco2)c2nnn(Cc3cccc(F)c3F)c2n1"
observed_value = 110

[[record]]
smiles_str = "Nc1nc(-c2ccco2)c2nnn(Cc3ccc4[nH]nnc4c3)c2n1"
observed_value = 291

[[record]]
smiles_str = "Nc1nc(-c2ccco2)c2nnn(Cc3cccs3)c2n1"
observed_value = 117


* * *

Reported Ki values for the following compounds.
Biological target: UniProt P30542
Sequence (P30542 whole entry): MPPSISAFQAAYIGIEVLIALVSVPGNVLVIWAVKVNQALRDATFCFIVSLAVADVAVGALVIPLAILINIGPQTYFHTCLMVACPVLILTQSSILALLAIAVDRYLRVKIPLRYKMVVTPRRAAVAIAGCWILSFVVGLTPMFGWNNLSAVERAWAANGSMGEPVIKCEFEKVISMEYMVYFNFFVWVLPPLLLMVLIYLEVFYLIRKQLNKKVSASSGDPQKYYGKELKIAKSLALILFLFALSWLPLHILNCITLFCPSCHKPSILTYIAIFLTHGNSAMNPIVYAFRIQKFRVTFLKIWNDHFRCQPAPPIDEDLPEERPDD
Assay: Displacement of radioligand from human recombinant adenosine A1 receptor at 21 degC after 90 mins by cell-based microplate scintillation counting
reported-property: Ki (nM)

[[record]]
smiles_str = "Cc1ccc(-c2nc(N)nc3c2nnn3Cc2ccccc2F)o1"
observed_value = 19

[[record]]
smiles_str = "CC(C)c1cc(Cn2nnc3c(-c4ccco4)nc(N)nc32)ccc1N"
observed_value = 50

[[record]]
smiles_str = "CC(=O)Nc1ccc(Cn2nnc3c(-c4ccco4)nc(N)nc32)cc1"
observed_value = 2530

[[record]]
smiles_str = "Cc1csc(-c2nc(N)nc3c2nnn3Cc2ccccc2F)n1"
observed_value = 203

[[record]]
smiles_str = "Cc1cccc(Cn2nnc3c(-c4ccco4)nc(N)nc32)c1"
observed_value = 45

[[record]]
smiles_str = "Nc1nc(-c2ccco2)c2nnn(Cc3ccccc3[N+](=O)[O-])c2n1"
observed_value = 400

[[record]]
smiles_str = "Nc1nc(-c2ccco2)c2nnn(Cc3cccc([N+](=O)[O-])c3)c2n1"
observed_value = 231

[[record]]
smiles_str = "Nc1ccc(Cn2nnc3c(-c4ccco4)nc(N)nc32)cc1"
observed_value = 190

[[record]]
smiles_str = "Nc1nc(-c2ccco2)c2nnn(Cc3cccc(C(=O)O)c3)c2n1"
observed_value = 4140

[[record]]
smiles_str = "Nc1nc(-c2ccco2)c2nn[nH]c2n1"
observed_value = 3620

[[record]]
smiles_str = "COc1cccc(Cn2nnc3c(-c4ccco4)nc(N)nc32)c1"
observed_value = 77

[[record]]
smiles_str = "Nc1nc(-c2ccco2)c2nnn(Cc3ccccc3)c2n1"
observed_value = 83

[[record]]
smiles_str = "Nc1nc(-c2ccco2)c2nnn(Cc3ccsc3)c2n1"
observed_value = 78

[[record]]
smiles_str = "Nc1nc(-c2ccco2)c2nnn(Cc3ccc(N)c(F)c3)c2n1"
observed_value = 120

[[record]]
smiles_str = "Nc1cccc(Cn2nnc3c(-c4ccco4)nc(N)nc32)c1"
observed_value = 131

[[record]]
smiles_str = "COC(=O)c1cccc(Cn2nnc3c(-c4ccco4)nc(N)nc32)c1"
observed_value = 105

[[record]]
smiles_str = "NCc1ccc(Cn2nnc3c(-c4ccco4)nc(N)nc32)cc1"
observed_value = 4910

[[record]]
smiles_str = "CC(C)N(C)C(=O)c1cccc(Cn2nnc3c(-c4ccco4)nc(N)nc32)c1"
observed_value = 1130

[[record]]
smiles_str = "Nc1nc(-c2cnn[nH]2)c2nnn(Cc3ccccc3F)c2n1"
observed_value = 2960

[[record]]
smiles_str = "Nc1nc(-c2ccco2)c2nnn(Cc3cccc(C(F)(F)F)c3)c2n1"
observed_value = 100

[[record]]
smiles_str = "CCc1cc(Cn2nnc3c(-c4ccco4)nc(N)nc32)ccc1N"
observed_value = 26

[[record]]
smiles_str = "NC(=O)c1cccc(Cn2nnc3c(-c4ccco4)nc(N)nc32)c1"
observed_value = 700

[[record]]
smiles_str = "Nc1nc(-c2cncs2)c2nnn(Cc3ccccc3F)c2n1"
observed_value = 894


This collection of values is drawn from ChEMBL document CHEMBL1139344.
